Attribution: the supplement of paper PMC12494721

tested on: Ruminococcus gnavus DSM 108212; test: growth (OD595) fold change vs plate DMSO controls (fold change (ratio)); higher = more growth; settings: 20 µM; incubation time: 27 h, anaerobic, 37 °C
Structures can show the parent of a compound that is named as a salt.
For each of the molecules below, state its growth.

Below are some molecules; for each one, tell me its growth.
1. c1ccc2c(c1)Nc1ccccc1S2 [Phenothiazine]
2. CCN(CC)C(C)C(=O)c1ccccc1 (centres undefined) [Amfepramone hydrochloride]

1: 1.02; 2: 1.06

Below are some molecules; for each one, tell me its growth.
1. Oc1ccccc1-c1ccccc1
2. COc1cc([C@@H]2c3cc4c(cc3[C@H](O)[C@H]3COC(=O)[C@H]23)OCO4)cc(OC)c1OC [Podophyllotoxin]

1. 1.21
2. 0.888

====

tested on: Ruminococcus gnavus DSM 108212; test: fold change of Tryptamine concentration vs plate DMSO controls (fold change (ratio)); higher = more amine produced, active = hit call of the paper (significant change in both replicates, either direction); details: 20 µM; incubation time: 27 h, anaerobic, 37 °C
Where a name gives a salt, the structure may show the parent alone.
Criterion: fold change of Tryptamine concentration meeting or surpassing 1. Met: T. Not met: F.

Some entries whose results are on file:
>  <compound>
C[N+]12CCC(CC1)C(OC(=O)C(O)(c1ccccc1)c1ccccc1)C2 (stereo not drawn) [Clidinium bromide]

>  <classLabel>
T

$$$$
>  <compound>
CC(C)C[C@H]1C(=O)N2CCC[C@H]2[C@]2(O)O[C@](NC(=O)[C@@H]3C=C4c5cccc6[nH]c(Br)c(c56)C[C@H]4N(C)C3)(C(C)C)C(=O)N12 [Bromocryptine mesylate]

>  <classLabel>
T

$$$$

Is fold change of Tryptamine concentration for CCCC1COC(Cn2cncn2)(c2ccc(Cl)cc2Cl)O1 (stereo not drawn) at or above 1?
T

Is fold change of Tryptamine concentration for CC[C@H](C)C1O[C@]2(C=C[C@@H]1C)C[C@@H]1C[C@@H](C/C=C(\C)[C@@H](O[C@H]3C[C@H](OC)[C@@H](O[C@H]4C[C@H](OC)[C@H](NC)[C@H](C)O4)[C@H](C)O3)[C@@H](C)/C=C/C=C3\CO[C@@H]4[C@H](O)C(C)=C[C@@H](C(=O)O1)[C@]34O)O2 (stereo partly drawn) at or above 1?
F

Is fold change of Tryptamine concentration for `CNC(=O)c1cc(C#N)cc(C)c1NC(=O)c1cc(Br)nn1-c1ncccc1Cl` at or above 1?
T

Is fold change of Tryptamine concentration for C[N+]1([O-])[C@@H]2C[C@@H](OC(=O)[C@H](CO)c3ccccc3)C[C@H]1[C@@H]1O[C@@H]12 (stereo partly drawn) [Scopolamin-N-oxide hydrobromide] at or above 1?
T

Is fold change of Tryptamine concentration for `CO[C@]12C[C@@H](COC(=O)c3cncc(Br)c3)CN(C)[C@@H]1Cc1cn(C)c3cccc2c13` at or above 1?
F

Is fold change of Tryptamine concentration for `O=NN(CCO)CCO` at or above 1?
T

Is fold change of Tryptamine concentration for `O=c1c2ccccc2[se]n1-c1ccccc1` at or above 1?
F

Is fold change of Tryptamine concentration for OCC(O)CCl (racemic) at or above 1?
T

Is fold change of Tryptamine concentration for CC(=O)NC1CCSC1=O (stereo not drawn) at or above 1?
T

Is fold change of Tryptamine concentration for `O=S(=O)(c1ccc(O)cc1)c1ccc(O)cc1` at or above 1?
F
